Task for the reader: assign each of the following molecules its reported pest or weed control at 50 µg/cm2, 50 µg/cm2.
test system: third instar T. ni larvae; experiment: Leaf disk choice feeding deterrence bioassay; format: in vivo, Trichoplusia ni; details: Trichoplusia, foliar, Table 3, 1,4-dialkoxybenzenes; feeding deterrence at 50 μg/cm^2; read-out: FD (%), mean ± SE (n = 25)
Quick reminder: number only, in %, skip the unit.

Request: Using the record for CCCOc1ccc(OCCC)cc1 , state its measured pest or weed control at 50 µg/cm2, 50 µg/cm2.
Response: 96

Request: Consider the molecule C=CCOc1ccc(OCC=C)cc1 and give its recorded pest or weed control at 50 µg/cm2, 50 µg/cm2.
Response: 96.9

Request: Name the recorded pest or weed control at 50 µg/cm2, 50 µg/cm2 of the molecule listed here: CCOc1ccc(O)cc1
Response: 29.8

Request: State its pest or weed control at 50 µg/cm2, 50 µg/cm2 for this molecule: CC(C)CCOc1ccc(O)cc1
Response: 29.5

Request: Let me know recorded pest or weed control at 50 µg/cm2, 50 µg/cm2 for CCOc1ccc(OCC)cc1 , thanks.
Response: 80.8

Request: Provide only the value of recorded pest or weed control at 50 µg/cm2, 50 µg/cm2 for CCCOc1ccc(O)cc1
Response: -28

Request: Tell me its pest or weed control at 50 µg/cm2, 50 µg/cm2 given COc1ccc(O)cc1 as the entry.
Response: -26.5

Request: Give the reported value of pest or weed control at 50 µg/cm2, 50 µg/cm2 for this record: CC(C)CCOc1ccc(OCCC(C)C)cc1
Response: 44

Request: Identify measured pest or weed control at 50 µg/cm2, 50 µg/cm2 corresponding to C=CCOc1ccc(OCCCC)cc1
Response: 84

Request: Give recorded pest or weed control at 50 µg/cm2, 50 µg/cm2. COc1ccc(OC)cc1
Response: 9.9

Request: Answer with the recorded pest or weed control at 50 µg/cm2, 50 µg/cm2 for the molecule listed here: C=CCOc1ccc(OCCC(C)C)cc1
Response: 75.1

meta.source: patent US9125406B2
